system.under.test: EsaR (Pantoea stewartii subsp. stewartii, UniProt P54293)
Construct: expressed in transfected cells; host or cells: E. coli JLD271 (K12 ΔsdiA), arabinose-induced pJN105-esaR
Sequence (P54293 whole entry): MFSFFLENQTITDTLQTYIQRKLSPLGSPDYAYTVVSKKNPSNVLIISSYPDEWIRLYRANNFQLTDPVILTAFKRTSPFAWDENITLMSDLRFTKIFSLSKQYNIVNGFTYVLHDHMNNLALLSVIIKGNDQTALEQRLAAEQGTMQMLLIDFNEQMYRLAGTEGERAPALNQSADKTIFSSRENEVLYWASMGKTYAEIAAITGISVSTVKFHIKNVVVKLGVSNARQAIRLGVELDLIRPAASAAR
assay.info: cell-based
test.settings: 3.5 h, read-out: EsaR-repressed (pesaR) [%] agonism
Listed next: entries and their corresponding activation at 100 µM.
quantity.kind: activation at 100 µM (%)

[[record]]
compound = "O=C(Cc1ccc(F)cc1)N[C@H]1CCOC1=O"
quantity_kind = "activation at 100 µM"
quantity_unit = "%"
val = -2

[[record]]
compound = "CCCCCC(=O)N[C@H]1CCOC1=O [HHL, hexanoyl HL, reference compound]"
quantity_kind = "activation at 100 µM"
quantity_unit = "%"
val = 98

[[record]]
compound = "O=C(Cc1cccc(I)c1)N[C@H]1CCOC1=O"
quantity_kind = "activation at 100 µM"
quantity_unit = "%"
val = 44

[[record]]
compound = "Cc1cccc(CC(=O)N[C@H]2CCOC2=O)c1 [E1]"
quantity_kind = "activation at 100 µM"
quantity_unit = "%"
val = 12

[[record]]
compound = "CCCC(=O)N[C@H]1CCOC1=O [BHL, reference compound]"
quantity_kind = "activation at 100 µM"
quantity_unit = "%"
val = 6

[[record]]
compound = "O=C(Cc1cccc2ccccc12)N[C@H]1CCOC1=O"
quantity_kind = "activation at 100 µM"
quantity_unit = "%"
val = 0.5

[[record]]
compound = "O=C(Cc1cccc(Cl)c1)N[C@H]1CCOC1=O"
quantity_kind = "activation at 100 µM"
quantity_unit = "%"
val = 29

[[record]]
compound = "O=C(Cc1ccccc1Br)N[C@H]1CCOC1=O"
quantity_kind = "activation at 100 µM"
quantity_unit = "%"
val = 0.4

[[record]]
compound = "O=C(N[C@H]1CCOC1=O)c1ccc(Br)cc1"
quantity_kind = "activation at 100 µM"
quantity_unit = "%"
val = 11

[[record]]
compound = "CCCC(=O)CC(=O)N[C@H]1CCOC1=O [OHHL, 3-oxo-hexanoyl HL, reference compound]"
quantity_kind = "activation at 100 µM"
quantity_unit = "%"
val = 100

[[record]]
compound = "CCCCCCCCCCCC(=O)N[C@H]1CCOC1=O [dDHL, reference compound]"
quantity_kind = "activation at 100 µM"
quantity_unit = "%"
val = 35

[[record]]
compound = "O=C(Cc1ccccc1[N+](=O)[O-])N[C@H]1CCOC1=O"
quantity_kind = "activation at 100 µM"
quantity_unit = "%"
val = -1

[[record]]
compound = "O=C(CCc1ccc(Br)cc1)N[C@H]1CCOC1=O"
quantity_kind = "activation at 100 µM"
quantity_unit = "%"
val = 66

[[record]]
compound = "CCCCCCCC(=O)N[C@H]1CCOC1=O [OHL, octanoyl HL, reference compound]"
quantity_kind = "activation at 100 µM"
quantity_unit = "%"
val = 91

[[record]]
compound = "O=C(CCc1ccccc1)N[C@H]1CCOC1=O"
quantity_kind = "activation at 100 µM"
quantity_unit = "%"
val = 6

[[record]]
compound = "O=C(Cc1ccccc1)N[C@H]1CCOC1=O"
quantity_kind = "activation at 100 µM"
quantity_unit = "%"
val = 7

[[record]]
compound = "CCCCCCCCCCCCCCCC(=O)N[C@H]1CCOC1=O [hDHL, reference compound]"
quantity_kind = "activation at 100 µM"
quantity_unit = "%"
val = 22

[[record]]
compound = "CCCCCCCC(=O)CC(=O)N[C@H]1CCOC1=O [ODHL, reference compound]"
quantity_kind = "activation at 100 µM"
quantity_unit = "%"
val = 37

[[record]]
compound = "O=C(Cc1ccc(I)cc1)N[C@H]1CCOC1=O"
quantity_kind = "activation at 100 µM"
quantity_unit = "%"
val = 0.4

[[record]]
compound = "O=C(Cc1ccc2ccccc2c1)N[C@H]1CCOC1=O"
quantity_kind = "activation at 100 µM"
quantity_unit = "%"
val = 7

[[record]]
compound = "O=C(Cc1ccc(Cl)cc1)N[C@H]1CCOC1=O"
quantity_kind = "activation at 100 µM"
quantity_unit = "%"
val = 3


====

system.under.test: EsaR (Pantoea stewartii subsp. stewartii)
Construct: expressed in transfected cells; host or cells: E. coli JLD271 (K12 ΔsdiA), arabinose-induced pJN105-esaR
assay.info: cell-based
EC50 under 20 µM gets Y, anything at or over 20 µM gets N.

[[record]]
compound = "CCCS(=O)(=O)N[C@H]1CCOC1=O"
category = "N"

[[record]]
compound = "O=C1OCC[C@@H]1NS(=O)(=O)c1cccc(Cl)c1"
category = "Y"

[[record]]
compound = "O=C(Cc1cccc(Cl)c1)N[C@H]1CCOC1=O"
category = "N"

[[record]]
compound = "O=C1OCC[C@@H]1NS(=O)(=O)c1ccc(Br)cc1"
category = "N"

[[record]]
compound = "O=C(CCc1cccc([N+](=O)[O-])c1)N[C@H]1CCOC1=O"
category = "N"

[[record]]
compound = "O=C1OCC[C@@H]1NS(=O)(=O)c1cc(Cl)cc(Cl)c1"
category = "N"

[[record]]
compound = "O=C(Cc1cccc([N+](=O)[O-])c1)N[C@H]1CCOC1=O"
category = "N"

[[record]]
compound = "O=C1OCC[C@@H]1NS(=O)(=O)c1ccc(Cl)c(Cl)c1Cl"
category = "Y"

[[record]]
compound = "CCCCCCCC(=O)CC(=O)N[C@H]1CCOC1=O [ODHL, reference compound]"
category = "N"

[[record]]
compound = "CCCCCS(=O)(=O)N[C@H]1CCOC1=O"
category = "Y"


====

Listed next: entries and their corresponding inhibition at 100 µM.
system.under.test: EsaR (Pantoea stewartii subsp. stewartii)
Construct: expressed in transfected cells; host or cells: E. coli JLD271 (K12 ΔsdiA), arabinose-induced pJN105-esaR
assay.info: cell-based
test.settings: 3.5 h, read-out: EsaR-repressed (pesaR) antagonism
quantity.kind: inhibition at 100 µM (%)

[[record]]
compound = "O=C(Cc1cccc(Br)c1)N[C@H]1CCOC1=O [C8]"
quantity_kind = "inhibition at 100 µM"
quantity_unit = "%"
val = -65

[[record]]
compound = "CCCCCCCCCCCC(=O)CC(=O)N[C@H]1CCOC1=O [OtDHL, reference compound]"
quantity_kind = "inhibition at 100 µM"
quantity_unit = "%"
val = -53

[[record]]
compound = "CCCCCCCC(=O)CC(=O)N[C@H]1CCOC1=O [ODHL, reference compound]"
quantity_kind = "inhibition at 100 µM"
quantity_unit = "%"
val = -94

[[record]]
compound = "CCCCCCCCCC(=O)CC(=O)N[C@H]1CCOC1=O [OdDHL, 3-(oxo)-dodecanoyl HL, reference compound]"
quantity_kind = "inhibition at 100 µM"
quantity_unit = "%"
val = -10

[[record]]
compound = "CCCC(=O)N[C@H]1CCOC1=O [BHL, reference compound]"
quantity_kind = "inhibition at 100 µM"
quantity_unit = "%"
val = -46

[[record]]
compound = "CCCCCCCC(=O)N[C@H]1CCOC1=O [OHL, octanoyl HL, reference compound]"
quantity_kind = "inhibition at 100 µM"
quantity_unit = "%"
val = -40

[[record]]
compound = "O=C(Cc1ccc(Cl)cc1)N[C@H]1CCOC1=O [C5, 4-Cl PHL]"
quantity_kind = "inhibition at 100 µM"
quantity_unit = "%"
val = 2

[[record]]
compound = "COc1cccc(CC(=O)N[C@H]2CCOC2=O)c1 [E2]"
quantity_kind = "inhibition at 100 µM"
quantity_unit = "%"
val = -42

[[record]]
compound = "O=C(Cc1ccccc1I)N[C@H]1CCOC1=O [C12]"
quantity_kind = "inhibition at 100 µM"
quantity_unit = "%"
val = 4

[[record]]
compound = "Cc1cccc(CC(=O)N[C@H]2CCOC2=O)c1 [E1]"
quantity_kind = "inhibition at 100 µM"
quantity_unit = "%"
val = 2

[[record]]
compound = "O=C(Cc1ccc2ccccc2c1)N[C@H]1CCOC1=O [E12]"
quantity_kind = "inhibition at 100 µM"
quantity_unit = "%"
val = 37

[[record]]
compound = "CCCCCC(=O)CC(=O)N[C@H]1CCOC1=O [OOHL, 3-(oxo)-octanoyl HL, reference compound]"
quantity_kind = "inhibition at 100 µM"
quantity_unit = "%"
val = -138

[[record]]
compound = "CCCCCCCCCCCC(=O)N[C@H]1CCOC1=O [dDHL, reference compound]"
quantity_kind = "inhibition at 100 µM"
quantity_unit = "%"
val = -27

[[record]]
compound = "O=C(Cc1ccc([N+](=O)[O-])cc1)N[C@H]1CCOC1=O [C13]"
quantity_kind = "inhibition at 100 µM"
quantity_unit = "%"
val = 12

[[record]]
compound = "O=C(CCc1ccccc1)N[C@H]1CCOC1=O [B9]"
quantity_kind = "inhibition at 100 µM"
quantity_unit = "%"
val = -10

[[record]]
compound = "O=C(Cc1ccc(I)cc1)N[C@H]1CCOC1=O [C10]"
quantity_kind = "inhibition at 100 µM"
quantity_unit = "%"
val = 25

[[record]]
compound = "O=C(Cc1cc(C(F)(F)F)cc(C(F)(F)F)c1)N[C@H]1CCOC1=O [E9]"
quantity_kind = "inhibition at 100 µM"
quantity_unit = "%"
val = -17

[[record]]
compound = "O=C(Cc1ccccc1Cl)N[C@H]1CCOC1=O [C7]"
quantity_kind = "inhibition at 100 µM"
quantity_unit = "%"
val = -26

[[record]]
compound = "CCCC(=O)CC(=O)N[C@H]1CCOC1=O [OHHL, 3-oxo-hexanoyl HL, reference compound]"
quantity_kind = "inhibition at 100 µM"
quantity_unit = "%"
val = 0

[[record]]
compound = "CCCCCC(=O)N[C@H]1CCOC1=O [HHL, hexanoyl HL, reference compound]"
quantity_kind = "inhibition at 100 µM"
quantity_unit = "%"
val = -126

